# assay explanation: Henry solubility constant Hcp at 298.15 K (mol/(m3 Pa))
# study conditions: reference: Dohnal and Hovorka (1999)
Please provide measured Henry solubility constant Hcp for the entries that follow.
Answers are plain numbers.

Consider the worked cases shown below.
• Cc1ccccc1C = 0.0021
• Cc1cccc(C)c1 = 0.0015
• CCC(C)(C)OC = 0.01
• Cc1ccc(C)cc1 = 0.0015
• C=Cc1ccccc1 = 0.0034
• c1ccccc1 = 0.0018

Give measured Henry solubility constant Hcp for every item shown.
1. Cc1ccccc1
2. CC(C)OC(C)C

1. 0.0016
2. 0.0047

====

# assay explanation: Henry solubility constant Hcp at 293 K (mol/(m3 Pa))
# study conditions: reference: Dohnal and Hovorka (1999)
For each record, write down the corresponding Henry solubility constant Hcp at 293 K.
Answers are plain numbers.

* Clc1ccccc1 [chlorobenzene] | 0.0036
* BrCBr [dibromomethane] | 0.014
* ClCC(Cl)Cl [1,1,2-trichloroethane] | 0.015
* CC(Cl)CCl (stereo unspecified) [1,2-dichloropropane] | 0.0044
* ClC(Cl)=C(Cl)Cl [tetrachloroethene] | 0.00086

CCCCCl [1-chlorobutane] yielded Henry solubility constant Hcp at 293 K of 0.00067
